# target: human CD33 L338A (human, UniProt P20138 18-364)
# Sequence (P20138 18-364 L338A limits assumed): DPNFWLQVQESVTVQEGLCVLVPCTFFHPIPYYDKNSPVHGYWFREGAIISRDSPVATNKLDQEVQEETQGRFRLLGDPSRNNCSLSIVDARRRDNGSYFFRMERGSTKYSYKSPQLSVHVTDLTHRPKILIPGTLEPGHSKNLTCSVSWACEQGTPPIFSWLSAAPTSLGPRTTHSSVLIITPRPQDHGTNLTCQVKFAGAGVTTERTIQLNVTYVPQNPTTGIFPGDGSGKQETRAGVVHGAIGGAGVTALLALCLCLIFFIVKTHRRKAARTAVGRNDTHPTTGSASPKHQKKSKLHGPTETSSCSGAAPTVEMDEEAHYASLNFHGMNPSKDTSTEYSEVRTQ
# experimentDescription: flow cytometry, alanine scan
reportedProperty: Mean % WT Binding

Check out these entries, answers already filled in.
binder	result
Refmab #3 (antibody, V domains shown, The alanine scan used IgG or Fab) VH: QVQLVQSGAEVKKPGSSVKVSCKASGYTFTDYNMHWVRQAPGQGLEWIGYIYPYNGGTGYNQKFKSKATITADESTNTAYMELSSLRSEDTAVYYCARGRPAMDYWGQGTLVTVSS VL: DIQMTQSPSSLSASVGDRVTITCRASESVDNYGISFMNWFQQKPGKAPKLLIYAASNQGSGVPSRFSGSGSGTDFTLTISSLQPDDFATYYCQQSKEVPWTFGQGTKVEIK	89.3 % of WT
Refmab #4 (antibody, V domains shown, The alanine scan used IgG or Fab) VH: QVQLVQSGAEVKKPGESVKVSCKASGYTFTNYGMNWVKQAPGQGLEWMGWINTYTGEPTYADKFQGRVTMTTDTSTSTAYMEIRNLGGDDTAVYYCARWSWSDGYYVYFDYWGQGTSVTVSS VL: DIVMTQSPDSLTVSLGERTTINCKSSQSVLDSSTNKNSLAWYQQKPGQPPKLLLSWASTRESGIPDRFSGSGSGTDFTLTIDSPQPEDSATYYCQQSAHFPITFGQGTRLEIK	109 % of WT
Refmab #2 (antibody, V domains shown, The alanine scan used IgG or Fab) VH: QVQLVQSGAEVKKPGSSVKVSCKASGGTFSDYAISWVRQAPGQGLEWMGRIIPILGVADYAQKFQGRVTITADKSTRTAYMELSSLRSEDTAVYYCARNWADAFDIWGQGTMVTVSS VL: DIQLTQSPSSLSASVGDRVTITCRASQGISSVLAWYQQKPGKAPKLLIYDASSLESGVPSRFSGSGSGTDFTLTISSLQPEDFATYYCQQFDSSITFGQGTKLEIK	107 % of WT

From here, focus on the item given below.
Note to self: Mean % WT Binding recorded for Refmab #1 (antibody, V domains shown, The alanine scan used IgG or Fab; also called hP67.6) VH: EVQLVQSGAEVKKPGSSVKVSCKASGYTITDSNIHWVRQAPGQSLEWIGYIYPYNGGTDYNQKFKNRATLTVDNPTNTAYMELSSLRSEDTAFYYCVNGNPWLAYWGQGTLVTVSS VL: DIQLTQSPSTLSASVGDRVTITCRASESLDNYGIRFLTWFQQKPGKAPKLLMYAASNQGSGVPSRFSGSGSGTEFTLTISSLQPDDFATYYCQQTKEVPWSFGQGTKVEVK was 83.1 % of WT
